# SYSTEM_TESTED: human CCR8 (human) (UniProt P51685)
# METHOD_NOTES: cell-based or functional assay
PROPERTY_LABEL: IC50 ratio (WT IC50/mutant IC50)
The answer should be a number; do not append a unit.

h10A11 (IGKV4-1/IGHV3-73 N53Q) (antibody, name in Kabat numbering, V domains shown) VH: EVQLVESGGGLVQPGGSLKLSCAASGFAFNTYALYWVRQASGKGLEWVGRIRSKSQNYATYYADSVKDRFTISRDDSKNTAYLQMNSLKTEDTAVYYCTRARFYYSDYGYAMDYWGQGTLVTVSS VL: DIVMTQSPDSLAVSLGERATINCRSSKSLLHSNGNTYLYWYQQKPGQPPKLLIYRMSNLASGVPDRFSGSGSGTDFTLTISSLQAEDVAVYYCMQHLEYPLTFGQGTKLEIKR    0.03
h10A11 (IGKV4-1/IGHV3-73 Y102F) (antibody, name in Kabat numbering, V domains shown) VH: EVQLVESGGGLVQPGGSLKLSCAASGFAFNTYALYWVRQASGKGLEWVGRIRSKSNNYATYYADSVKDRFTISRDDSKNTAYLQMNSLKTEDTAVYYCTRARFYYSDYGYAMDFWGQGTLVTVSS VL: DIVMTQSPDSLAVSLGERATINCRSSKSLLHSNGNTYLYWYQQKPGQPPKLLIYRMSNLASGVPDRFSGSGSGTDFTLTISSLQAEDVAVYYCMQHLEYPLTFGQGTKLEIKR    0.99

Next binder, please.
INPUT: Report IC50 ratio (WT IC50/mutant IC50) for h10A11 (IGKV4-1/IGHV3-73 Y100dF) (antibody, name in Kabat numbering, V domains shown) VH: EVQLVESGGGLVQPGGSLKLSCAASGFAFNTYALYWVRQASGKGLEWVGRIRSKSNNYATYYADSVKDRFTISRDDSKNTAYLQMNSLKTEDTAVYYCTRARFYYSDYGFAMDYWGQGTLVTVSS VL: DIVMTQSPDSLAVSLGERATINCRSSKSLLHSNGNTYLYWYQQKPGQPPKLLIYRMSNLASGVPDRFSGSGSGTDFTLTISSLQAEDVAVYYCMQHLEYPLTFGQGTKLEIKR please.
OUTPUT: 0.55
